These entries and their values trace back to patent US5700804A.

SYSTEM_NAME: PAI-1 (Homo sapiens, UniProt P05121)
Sequence (P05121 24-402): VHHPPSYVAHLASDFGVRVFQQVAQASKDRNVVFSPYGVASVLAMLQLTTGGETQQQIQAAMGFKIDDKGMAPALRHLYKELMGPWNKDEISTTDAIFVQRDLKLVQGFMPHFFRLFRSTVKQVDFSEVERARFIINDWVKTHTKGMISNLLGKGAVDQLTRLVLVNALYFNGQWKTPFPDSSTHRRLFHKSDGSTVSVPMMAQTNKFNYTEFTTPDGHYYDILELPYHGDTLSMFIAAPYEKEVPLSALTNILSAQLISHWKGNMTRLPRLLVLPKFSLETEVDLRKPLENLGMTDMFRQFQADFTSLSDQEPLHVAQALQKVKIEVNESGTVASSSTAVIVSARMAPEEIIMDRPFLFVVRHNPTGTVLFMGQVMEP
ASSAY_OVERVIEW: PAI chromogenic substrate assay (first S2251 assay, tPA/plasminogen system)
Type: biochemical
RECORDED_CONDITIONS: Concentration 100 μm
Protocol: In this assay, a compound is incubated with PAI-1 prior to addition to the tPA assay system. Inhibition of PAI-1 results in the production of plasmin from plasminogen. In turn, plasmin cleaves the chromogenic substrate S2251 (Kabi Vitrum) producing pNA (p-nitroaniline) which is detected spectrophotometrically at 405 nm (K. Nilsson et al, Fibrinolysis (1987) 1, 163-168). Compounds of formula (A) were tested in a PAI chromogenic substrate assay. […]
OUTCOME_MEASURE: Inhibition of PAI-1 in the first S2251 chromogenic substrate assay (%)

Noted Inhibition of PAI-1 in the first S2251 chromogenic substrate assay for CC(=O)Oc1cccc(/C=c2\[nH]c(=O)/c(=C/c3ccccc3)[nH]c2=O)c1 [Compound 31] , tested on PAI-1 (Homo sapiens, UniProt P05121): 58

Noted Inhibition of PAI-1 in the first S2251 chromogenic substrate assay for CC(C)(C)OC(=O)NCc1ccc(/C=c2\[nH]c(=O)/c(=C/c3ccccc3)[nH]c2=O)cc1 [Compound 66] , tested on PAI-1 (Homo sapiens, UniProt P05121): 85

Noted Inhibition of PAI-1 in the first S2251 chromogenic substrate assay for COc1ccc(/C=c2\[nH]c(=O)/c(=C/c3ccc(NC(=O)COC(C)=O)cc3)[nH]c2=O)cc1 [Compound 87] , tested on PAI-1 (Homo sapiens, UniProt P05121): 78

A. COc1ccc(/C=c2\[nH]c(=O)/c(=C/c3c(Cl)cccc3Cl)[nH]c2=O)cc1 [Compound 29]
B. COc1ccc(/C=c2\[nH]c(=O)/c(=C/c3ccc(NC(=O)CO)cc3)[nH]c2=O)cc1 [Compound 88]
Between these two entries, A and B , state which has the higher Inhibition of PAI-1 in the first S2251 chromogenic substrate assay. Pick one; state its label.
A

1. CC(C)Oc1ccc(/C=c2\[nH]c(=O)/c(=C/c3ccccc3)[nH]c2=O)cc1 [Compound 52]
2. COC(=O)CCCC(=O)NCc1ccc(/C=c2\[nH]c(=O)/c(=C/c3ccccc3)[nH]c2=O)cc1 [Compound 94]
3. O=C(O)CCCCOc1ccc(/C=c2\[nH]c(=O)/c(=C/c3ccccc3)[nH]c2=O)cc1 [Compound 97]
Hey, can you sort those molecules up there by Inhibition of PAI-1 in the first S2251 chromogenic substrate assay, smallest first? # answer = labels listed in requested order
3, 2, 1

1. COc1ccc(/C=c2\[nH]c(=O)/c(=C/c3ccccc3)[nH]c2=O)cc1 [Compound 3]
2. O=c1[nH]/c(=C\c2ccc(O)cc2Cl)c(=O)[nH]/c1=C\c1ccccc1 [Compound 85]
Between these two entries, 1 and 2 , state which has the higher Inhibition of PAI-1 in the first S2251 chromogenic substrate assay. Pick one; state its label.
1
(1: 86%, 2: 35%)

a. CC(=O)SCc1cccc(/C=c2\[nH]c(=O)/c(=C/c3ccccc3)[nH]c2=O)c1 [Compound 61]
b. O=c1[nH]/c(=C\c2ccc(F)cc2F)c(=O)[nH]/c1=C\c1ccccc1 [Compound 54]
Please indicate which item has the smaller measured Inhibition of PAI-1 in the first S2251 chromogenic substrate assay: a versus b Pick one; state its label.
b

I. COc1ccc(/C=c2\[nH]c(=O)/c(=C/c3ccc(CS(C)(=O)=O)cc3)[nH]c2=O)cc1 [Compound 60]
II. COc1ccc(/C=c2\[nH]c(=O)/c(=C/c3ccccc3C(F)(F)F)[nH]c2=O)cc1 [Compound 70]
Please indicate which item has the smaller measured Inhibition of PAI-1 in the first S2251 chromogenic substrate assay: I versus II Pick one; state its label.
I
